# System: SH-SY5Y human neuroblastoma cells
# ASSAY: Protection against 6-OHDA-induced cell death (LDH)
# Assay type: cell-based
# CONDITION_NOTES: preincubated 2 hours before 6-OHDA 75 μM during 16 hours, 10% Foetal bovine serum
RECORDED_ENDPOINT: Protection 6-OHDA (minimum concentration at which a neuroprotective effect is shown) (µM)
Record the value in µM, omitting the unit from your answer.

{"SMILES_STR": "COc1cc2c(SC)cc(/C=N/O)nc2c2ncccc12", "DISPLAY_UNIT": "µM", "RECORDED_MEASUREMENT": 0.5}
{"SMILES_STR": "COCCOc1cc2cccnc2c2nc(/C=N/O)cc(OC)c12", "DISPLAY_UNIT": "µM", "RECORDED_MEASUREMENT": 0.5}
{"SMILES_STR": "COc1cc(/C=N/O)nc2c1c(F)cc1cccnc12", "DISPLAY_UNIT": "µM", "RECORDED_MEASUREMENT": 0.05}

Challenge: Name the reported Protection 6-OHDA (minimum concentration at which a neuroprotective effect is shown) value associated with the compound CSc1cc(/C=N/O)nc2c1c(C)cc1cccnc12
Response given: 0.05

Challenge: // next record COc1cc2c(=O)cc(/C=N/O)[nH]c2c2ncccc12
Response given: 10

Challenge: // next record COc1cc2cccnc2c2nc(/C=N/O)cc(SC)c12
Response given: 0.05
